# IC50 measurements, system: His6-TEV-PDGFRβ (557-1016) (Homo sapiens (Human), UniProt P09619)
# Sequence (P09619 557-1016): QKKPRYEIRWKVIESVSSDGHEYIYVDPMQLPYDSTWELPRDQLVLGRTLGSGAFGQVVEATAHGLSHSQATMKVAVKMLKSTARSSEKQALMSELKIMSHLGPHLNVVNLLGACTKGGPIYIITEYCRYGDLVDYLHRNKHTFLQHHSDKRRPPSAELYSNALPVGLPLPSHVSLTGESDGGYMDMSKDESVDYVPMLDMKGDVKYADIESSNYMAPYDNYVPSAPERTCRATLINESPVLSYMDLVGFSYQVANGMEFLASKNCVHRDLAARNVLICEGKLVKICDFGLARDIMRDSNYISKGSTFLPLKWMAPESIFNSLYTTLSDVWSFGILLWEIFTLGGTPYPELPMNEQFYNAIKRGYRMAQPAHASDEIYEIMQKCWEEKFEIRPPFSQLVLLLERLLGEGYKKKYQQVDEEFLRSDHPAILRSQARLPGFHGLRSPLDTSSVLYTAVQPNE

compound | systemTested | unitsSymbol | IC50
Cc1ncc(NC(=O)CN2CC(C)(C)C2)cc1NC(=O)c1cnn2cc(-c3cnn(C(F)F)c3)sc12 [Example 428] | His6-TEV-PDGFRβ (557-1016) (Homo sapiens (Human), UniProt P09619) | nM | 0.8
COCCn1cc(-c2cn3ncc(C(=O)Nc4cc(NC(=O)C(C)(C)CN5CCCC5(C)C)cnc4C)c3s2)cn1 [Example 488] | His6-TEV-PDGFRβ (557-1016) (Homo sapiens (Human), UniProt P09619) | nM | 92.3
COCCn1cc(-c2cn3ncc(C(=O)Nc4cc(NC(=O)CN5CC(C)(C)C5)cnc4C)c3s2)cn1 [Example 261] | His6-TEV-PDGFRβ (557-1016) (Homo sapiens (Human), UniProt P09619) | nM | 0.4
COc1ccc(-c2cn3ncc(C(=O)Nc4cc(NC(=O)CN5CC(C)(C)C5)cnc4C)c3s2)cn1 [Example 395] | His6-TEV-PDGFRβ (557-1016) (Homo sapiens (Human), UniProt P09619) | nM | 0.4
Cc1ncc(NC(=O)CCC2CCCN2C)cc1NC(=O)c1cnn2cc(-c3cnn(C)c3)sc12 (centres unmarked) [Example 492] | His6-TEV-PDGFRβ (557-1016) (Homo sapiens (Human), UniProt P09619) | nM | 0.7
COCCn1cc(-c2cn3ncc(C(=O)Nc4cc(NC(=O)CCN5CCC6(CCC6)C5)cnc4C)c3s2)cn1 [Example 90] | His6-TEV-PDGFRβ (557-1016) (Homo sapiens (Human), UniProt P09619) | nM | 0.5
Cc1ncc(NC(=O)NCCN2CCCC2(C)C)cc1NC(=O)c1cnn2cc(-c3cnn(C)c3)sc12 [Example 38] | His6-TEV-PDGFRβ (557-1016) (Homo sapiens (Human), UniProt P09619) | nM | 1.8
Cc1ncc(NC(=O)CN2CC(C)(C)C2)cc1NC(=O)c1cnn2cc(-c3ccc(CO)s3)sc12 [Example 278] | His6-TEV-PDGFRβ (557-1016) (Homo sapiens (Human), UniProt P09619) | nM | 0.2

---

- systemTested: PDGFRβ (Rattus norvegicus (Rat), UniProt Q05030)
- Sequence (Q05030 32-1097): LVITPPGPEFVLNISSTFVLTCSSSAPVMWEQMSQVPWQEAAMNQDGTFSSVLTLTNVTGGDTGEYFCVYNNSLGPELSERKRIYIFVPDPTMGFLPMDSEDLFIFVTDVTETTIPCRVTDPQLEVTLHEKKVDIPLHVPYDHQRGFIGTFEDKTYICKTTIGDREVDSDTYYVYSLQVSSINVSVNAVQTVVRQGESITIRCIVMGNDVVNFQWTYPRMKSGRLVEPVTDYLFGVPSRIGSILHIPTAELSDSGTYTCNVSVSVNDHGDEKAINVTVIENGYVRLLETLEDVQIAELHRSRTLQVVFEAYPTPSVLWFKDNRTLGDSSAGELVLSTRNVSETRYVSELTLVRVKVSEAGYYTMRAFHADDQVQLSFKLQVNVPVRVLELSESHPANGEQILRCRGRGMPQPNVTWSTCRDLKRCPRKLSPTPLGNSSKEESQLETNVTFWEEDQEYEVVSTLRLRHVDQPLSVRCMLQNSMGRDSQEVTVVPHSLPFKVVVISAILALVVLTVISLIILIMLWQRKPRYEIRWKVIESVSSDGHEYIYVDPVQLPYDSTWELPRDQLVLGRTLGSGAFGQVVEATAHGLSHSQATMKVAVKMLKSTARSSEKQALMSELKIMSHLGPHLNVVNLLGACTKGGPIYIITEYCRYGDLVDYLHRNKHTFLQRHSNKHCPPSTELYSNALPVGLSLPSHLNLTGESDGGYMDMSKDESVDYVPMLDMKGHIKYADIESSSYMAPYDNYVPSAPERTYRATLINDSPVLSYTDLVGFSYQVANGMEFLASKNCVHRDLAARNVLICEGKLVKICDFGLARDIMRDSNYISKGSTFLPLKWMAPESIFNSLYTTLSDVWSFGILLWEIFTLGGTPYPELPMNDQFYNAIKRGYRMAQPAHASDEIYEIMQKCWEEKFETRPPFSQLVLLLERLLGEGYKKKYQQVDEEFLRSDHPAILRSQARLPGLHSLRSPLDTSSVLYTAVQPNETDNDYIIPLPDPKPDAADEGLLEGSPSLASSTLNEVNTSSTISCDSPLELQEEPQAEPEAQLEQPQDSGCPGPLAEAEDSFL
- testDescription: PDGFRβ Cellular Assay (PDGFRb P-Y751 HTRF in A10 cells stimulated with PDGF-BB)
- Type: cell-based
- conditionsUsed: read-out: PDGFR Cellular IC50
pIC50: −log10 of the molar value.

compound | systemTested | pIC50
Cc1ncc(NC(=O)CN2C[C@H](C)O[C@@H](C)C2)cc1NC(=O)c1cnn2cc(-c3cnn(C4CC4)c3)sc12 (relative stereo) | PDGFRβ (Rattus norvegicus (Rat), UniProt Q05030) | 8.12
Cc1ncc(C(=O)NCCN2CCC23CCC3)cc1NC(=O)c1cnn2cc(-c3cnn(C)c3C)sc12 | PDGFRβ (Rattus norvegicus (Rat), UniProt Q05030) | 7.82
Cc1ncc(C(=O)NCCN2CCC23CCC3)cc1NC(=O)c1cnn2cc(-c3cn(C)nc3C)sc12 | PDGFRβ (Rattus norvegicus (Rat), UniProt Q05030) | 7.78
COc1ncccc1-c1cn2ncc(C(=O)Nc3cc(NC(=O)CN4C[C@H](CO)O[C@@H](C)C4)cnc3C)c2s1 (stereo in doubt) | PDGFRβ (Rattus norvegicus (Rat), UniProt Q05030) | 7.80
Cc1ncc(NC(=O)CN2CC(C)C2)cc1NC(=O)c1cnn2cc(-c3cnn4c3OCCC4)sc12 | PDGFRβ (Rattus norvegicus (Rat), UniProt Q05030) | 7.92

Where do these numbers come from? They come from patent US20240109917A1.
